The origin of these recorded values is paper PMC8119466.

Below, each of the compounds is paired with its reported % Phosphatase Activity (compared to DMSO) PRL-1 value.
- SYSTEM_TESTED: recombinant PRL-1 (Homo sapiens)
- Construct: 6xHis (N, cleaved yes); made in house; host or cells: E. coli One Shot BL21 Star
- Sequence (Q93096 1-173): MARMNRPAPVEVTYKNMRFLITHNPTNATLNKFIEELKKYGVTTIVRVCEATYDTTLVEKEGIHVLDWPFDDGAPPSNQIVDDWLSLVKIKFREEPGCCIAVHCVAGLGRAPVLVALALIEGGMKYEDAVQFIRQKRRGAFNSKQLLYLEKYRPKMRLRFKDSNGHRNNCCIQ
- EXPERIMENT_SUMMARY: In vitro phosphatase assay (DiFMUP hydrolysis), PRL-1; also: test concentration or dose not given here
- Type: biochemical
- CONDITION_PARAMETERS: FDA-approved drug screen; compared to DMSO
Counter-ions that a name gives are not always drawn.
OBSERVED_PROPERTY: % Phosphatase Activity (compared to DMSO) PRL-1 (%)

COMPOUND: CCN(CC)CCNC(=O)c1ccc(N)cc1 [Procainamide HCl]
UOM: %
REPORTED_RESULT: 94
--
COMPOUND: CN(C)C(=O)C(CCN1CCC(O)(c2ccc(Cl)cc2)CC1)(c1ccccc1)c1ccccc1 [Loperamide HCl]
UOM: %
REPORTED_RESULT: 105
--
COMPOUND: CC(O)(P(=O)(O)O)P(=O)(O)O [Etidronate]
UOM: %
REPORTED_RESULT: 102
--
COMPOUND: O=S(=O)(O)CCS
UOM: %
REPORTED_RESULT: 95
--
COMPOUND: CN(Cc1cc(Br)cc(Br)c1N)C1CCCCC1 [Bromhexine HCl]
UOM: %
REPORTED_RESULT: 95
--
COMPOUND: CN1CCN(C(c2ccccc2)c2ccccc2)CC1.Cl.Cl [Cyclizine 2HCl]
UOM: %
REPORTED_RESULT: 94
--
COMPOUND: N=C(N)c1ccc2cc(OC(=O)c3ccc(N=C(N)N)cc3)ccc2c1 [Nafamostat Mesylate]
UOM: %
REPORTED_RESULT: 204
--
COMPOUND: C=CC[C@]1(O)CC[C@H]2[C@@H]3CCC4=CC(=O)CCC4=C3C=C[C@@]21C
UOM: %
REPORTED_RESULT: 192
--
COMPOUND: CC(=O)OCC(=O)[C@@]1(O)CC[C@H]2[C@@H]3CCC4=CC(=O)C=C[C@]4(C)[C@H]3[C@@H](O)C[C@@]21C [Prednisolone Acetate]
UOM: %
REPORTED_RESULT: 105
--
COMPOUND: CN(C)c1ccc2nc3ccc(=[N+](C)C)cc-3sc2c1
UOM: %
REPORTED_RESULT: 55
--
COMPOUND: CC(C(=O)[O-])c1cccc(Oc2ccccc2)c1.CC(C(=O)[O-])c1cccc(Oc2ccccc2)c1.[Ca+2] (stereo not shown)
UOM: %
REPORTED_RESULT: 82
--
COMPOUND: CCCNC(C)C(=O)Nc1c(C)csc1C(=O)OC (stereo not shown) [Articaine HCl]
UOM: %
REPORTED_RESULT: 110
--
COMPOUND: CCOc1ccccc1OC(c1ccccc1)C1CNCCO1.CS(=O)(=O)O (stereo not shown) [Reboxetine mesylate]
UOM: %
REPORTED_RESULT: 125
--
COMPOUND: O=C(/C=C\n1cnc(-c2cc(C(F)(F)F)cc(C(F)(F)F)c2)n1)NNc1cnccn1
UOM: %
REPORTED_RESULT: 87
--
COMPOUND: CCOC(=O)c1ncn2c1CN(C)C(=O)c1cc(F)ccc1-2
UOM: %
REPORTED_RESULT: 106
--
COMPOUND: CC(C)Oc1ccc(-c2nc(-c3cccc4c3CC[C@@H]4NCCO)no2)cc1C#N [Ozanimod (RPC1063)]
UOM: %
REPORTED_RESULT: 95
